study system: Cytochrome P450 2C19 (Homo sapiens)
test details: Cytochrome panel assay with activity outcomes
stated conditions: recombinant CYP, pro-luciferin dealkylation, luminescence, p450-cyp2c19; series mostly up to 57.1 µM
Hit rate of the full screen: of about 16,000 compounds, about 5,800 (36%) were called active. Roughly 23% stayed inconclusive and do not appear here. The list shows a part of the results.
value type: AC50

Would you please look over these solved cases?
[[record]]
compound = "N#Cc1cc(-c2ccc(Cl)cc2)cnc1Sc1ccccc1"
result = "4470 nM (active)"

[[record]]
compound = "CC1(C)CC(=O)c2cn3ncnc3nc2C1"
result = "15800 nM (active)"

[[record]]
compound = "Cc1ccc(N(C(C)C(=O)Nc2cc(Cl)ccc2Oc2ccccc2)S(C)(=O)=O)cc1 (stereo not drawn)"
result = "1410 nM (active)"

[[record]]
compound = "COc1ccc(-n2c(=O)c(-c3ccc(F)c(F)c3)nc3cncnc32)cc1"
result = "inactive"


# evaluate next
Prompt: Fill in: AC50 of Cc1c(O)c(=O)n(-c2ccccc2)n1C is ___
Completion: inactive

---

study system: Cytochrome P450 2C19 (Homo sapiens)
test details: Cytochrome panel assay with activity outcomes
stated conditions: recombinant CYP, pro-luciferin dealkylation, luminescence, p450-cyp2c19; series mostly up to 57.1 µM
The campaign covered roughly 16,000 compounds. About 5,800 (36%) were called active. About 23% were inconclusive and are not listed. Calls come from the whole dose curve; as a rule, active = well fitted curve in the direction sought with a large enough effect; inconclusive = small, poorly fitted or top-dose-only effect, or effect the other way; inactive = no such curve, though single readings can be large or run the other way. Some of the results follow.
Answer with one of the outcomes t (active), f (inactive)

Prompt: Could you please tell me the result logged for CCNC(=O)c1c(NC(C)=O)sc2c1CCCC2 in this assay?
Completion: f

Prompt: Can you look up the reported call for CCNc1ncc2ncc(=O)n(C[C@H]3CCCO3)c2n1 for me?
Completion: f

Prompt: # outcome recorded in this test, key = COCCNc1ncnc2ccc(-c3ccccc3CN(C)C)cc12
Completion: f

Prompt: Tell me the assay call for CCOC(=O)N1CCN(C(=O)CCn2nc(-c3ccccc3)ccc2=O)CC1 please.
Completion: f

Prompt: Any idea what this test logged for CC(C)CN1CCCC2(CCN(C(=O)c3cccn3C)CC2)C1 ?
Completion: f

---

study system: Cytochrome P450 2C19 (Homo sapiens) (UniProt P33261)
Sequence (P33261 whole entry, looked up): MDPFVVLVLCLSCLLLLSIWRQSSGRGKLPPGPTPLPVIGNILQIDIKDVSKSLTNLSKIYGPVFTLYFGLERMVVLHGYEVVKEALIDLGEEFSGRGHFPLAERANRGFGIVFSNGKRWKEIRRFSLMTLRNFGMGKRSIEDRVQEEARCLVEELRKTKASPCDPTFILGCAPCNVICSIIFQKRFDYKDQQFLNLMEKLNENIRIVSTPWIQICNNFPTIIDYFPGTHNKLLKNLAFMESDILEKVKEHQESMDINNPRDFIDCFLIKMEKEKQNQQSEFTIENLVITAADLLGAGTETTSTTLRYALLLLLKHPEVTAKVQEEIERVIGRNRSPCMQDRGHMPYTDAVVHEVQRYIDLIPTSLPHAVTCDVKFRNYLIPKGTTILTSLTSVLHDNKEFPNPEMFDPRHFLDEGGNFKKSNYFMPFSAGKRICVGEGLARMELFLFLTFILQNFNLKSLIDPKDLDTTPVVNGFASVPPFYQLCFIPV
test details: Cytochrome panel assay with activity outcomes
stated conditions: recombinant CYP, pro-luciferin dealkylation, luminescence, p450-cyp2c19; series mostly up to 57.1 µM
Method: The P450 gene superfamily is involved in the metabolism and clearance of xenobiotics. This assay used various human CYP P450 isozymes to measure the dealkylation of various pro-luciferin substrates to luciferin. The luciferin is then measured by luminescence after the addition of a luciferase detection reagent. […] Inhibitors and some substrates limit the production of luciferin, and decrease measured luminescence. […] 8, Detection, 1 sec, ViewLux luminescent read […]
The campaign covered roughly 16,000 compounds. About 5,800 (36%) were called active. Roughly 23% stayed inconclusive and do not appear here. Calls follow the shape of the dose curve; as a rule, active = well fitted curve in the direction sought with a large enough effect; inconclusive = small, poorly fitted or top-dose-only effect, or effect the other way; inactive = no such curve, though single readings can be large or run the other way. The list shows a part of the results.
Response enum: 1 = active, -1 = inactive

[[record]]
compound = "CN1C(=O)c2ccccc2C(C(=O)O)C1c1cn(C)c2ccccc12 (stereo not drawn)"
assigned_label = -1


Prompt: Lab log entry: O=C(c1csnn1)N1CCC2(CC1)CCN(c1ccccc1)CC2 — outcome as called in the assay?
Completion: -1

Prompt: I'd appreciate the recorded outcome for CC(NC(=O)c1ccc(N2CCCC2=O)cc1)c1ccccc1 (stereo not drawn) from this test.
Completion: -1

Prompt: # fetch the recorded call for O=C(N/N=C/c1c(Nc2cccc(C(F)(F)F)c2)nc2ccccn2c1=O)c1ccccc1 here
Completion: 1

Prompt: Recorded test outcome, item C[N+]1(C)CCC(=C(c2ccccc2)c2ccccc2)CC1
Completion: -1

Prompt: Name the outcome recorded for CNc1nc(-c2cccc(C#N)c2)nc2ccccc12 in the assay.
Completion: 1

Prompt: Could you kindly confirm the outcome this assay logged for COc1ccc(-c2csc(-n3ncc(-c4cccs4)c3N)n2)cc1 ?
Completion: -1

Prompt: Hi, sorry to bother you, what did the test record for O=c1[nH]c2[nH]c(=S)[nH]c(=S)c2[nH]1 ?
Completion: 1

Prompt: What outcome does the record of this test show for O=C(NNC(=O)c1cc2cc3ccccc3nc2s1)c1cccc(C(F)(F)F)c1 ?
Completion: -1

Prompt: // param item: CN1c2ccccc2C(C)(C)C12C=Nc1c(cc(N3CCOCC3)c3ccccc13)O2 (stereo not drawn) ; yields the recorded call
Completion: 1

Prompt: Outcome? O=C(CCc1ccc(S(=O)(=O)NC2CCCCC2)cc1)N(Cc1ccccc1)Cc1ccccc1
Completion: 1

Prompt: Could you please tell me the result logged for Cc1cccc(OC2(c3ccccc3)OC(=O)c3ccccc32)c1C (stereo not drawn) in this assay?
Completion: 1

Prompt: Identify the outcome logged in this assay for the compound shown: Nc1c(-c2cccs2)cnn1-c1nc(-c2ccc(F)cc2)cs1
Completion: -1

Prompt: Could you please tell me the result logged for COc1ccc(-c2nc3cnc(N4CCN(C)CC4)nc3n(C3CC3)c2=O)cc1 in this assay?
Completion: -1

Prompt: Which outcome did this test record for the compound Cc1ccc(C(=O)N/N=C/c2sc(=O)n(Cc3cccc(C(=O)O)c3)c2Cl)cc1 ?
Completion: -1

Prompt: For this compound, state the assay outcome: COc1ccccc1CNc1nc(-c2cccc(C#N)c2)nc2ccccc12
Completion: 1
